test system: NLRP3 (Homo sapiens, UniProt Q96P20)
Sequence (Q96P20 whole entry): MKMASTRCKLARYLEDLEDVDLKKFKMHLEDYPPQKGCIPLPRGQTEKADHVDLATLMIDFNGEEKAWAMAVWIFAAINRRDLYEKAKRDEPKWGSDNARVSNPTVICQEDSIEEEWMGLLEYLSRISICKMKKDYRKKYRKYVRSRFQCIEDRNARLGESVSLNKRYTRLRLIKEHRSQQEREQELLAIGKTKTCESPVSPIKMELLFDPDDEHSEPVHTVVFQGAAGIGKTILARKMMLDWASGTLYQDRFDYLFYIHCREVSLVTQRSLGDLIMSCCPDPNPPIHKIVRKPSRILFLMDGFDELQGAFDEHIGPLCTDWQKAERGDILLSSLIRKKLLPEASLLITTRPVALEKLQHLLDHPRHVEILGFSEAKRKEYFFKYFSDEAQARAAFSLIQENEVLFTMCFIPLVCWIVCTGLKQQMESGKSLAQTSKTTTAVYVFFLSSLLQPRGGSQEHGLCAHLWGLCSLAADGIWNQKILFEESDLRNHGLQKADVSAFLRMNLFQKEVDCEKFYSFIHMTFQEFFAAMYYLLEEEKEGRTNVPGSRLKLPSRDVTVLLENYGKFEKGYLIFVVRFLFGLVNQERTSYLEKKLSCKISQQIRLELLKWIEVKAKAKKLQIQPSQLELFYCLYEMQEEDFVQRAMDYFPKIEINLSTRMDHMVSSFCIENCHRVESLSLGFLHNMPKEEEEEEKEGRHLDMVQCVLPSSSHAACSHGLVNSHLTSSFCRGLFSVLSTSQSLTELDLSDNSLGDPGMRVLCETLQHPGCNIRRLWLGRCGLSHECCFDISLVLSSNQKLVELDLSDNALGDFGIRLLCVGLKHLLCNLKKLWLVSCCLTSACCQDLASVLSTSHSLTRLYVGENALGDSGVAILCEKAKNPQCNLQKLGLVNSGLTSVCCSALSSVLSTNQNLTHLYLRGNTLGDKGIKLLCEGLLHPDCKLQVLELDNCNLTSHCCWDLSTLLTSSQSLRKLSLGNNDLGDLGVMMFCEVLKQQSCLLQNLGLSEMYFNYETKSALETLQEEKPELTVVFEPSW
assay protocol: Human whole blood IL1β release assay
Type: cell-based
Set-up: Human whole blood in Li-heparin tubes was obtained from healthy donors; from tissue; host or cells: human whole blood from healthy donors, LPS-primed, nigericin-stimulated
condition parameters: human whole blood, 1 μg/ml LPS, compound 3 hrs, nigericin 10 μM 1 hr, IL-1β AlphaLisa; read-out: HWB IC50
Structures can show the parent of a compound that is named as a salt.
# IC50 per entry
quantity: IC50

* CN(C(=O)c1cc(S(=O)(=O)NC(=O)Nc2c3c(cc4c2CCC4)CCC3)nn1C)C1CC1 [Example 152] | < 800 nM
* CNCC(C)(C)n1ccc(S(=O)(=O)NC(=O)Nc2c(-c3ccnc(OC)c3)ccc3c2CCC3)n1 [Example 191, sodium salt] | < 400 nM
* CN(C)CCn1ncc(S(=O)(=O)NC(=O)Nc2c3c(cc4c2CCC4)CCC3)n1 [Example 199] | < 1600 nM
* O=C(Nc1c2c(cc3c1CCC3)CCC2)NS(=O)(=O)c1ccn(Cc2ncco2)n1 [Example 35] | < 10000 nM
* CC(C)(C#N)n1ccc(S(=O)(=O)NC(=O)Nc2c3c(cc4c2CCC4)CCC3)n1 [Example 33] | < 1600 nM
* C[C@@H](Cn1ccc(S(=O)(=O)NC(=O)Nc2c3c(cc4c2CCC4)CCC3)n1)N(C)C [Example 18] | < 800 nM
* CNC(=O)c1cc(S(=O)(=O)NC(=O)Nc2c(C(C)C)cc(F)cc2C(C)C)nn1C [Example 150] | < 400 nM
* COc1cc(-c2ccc3c(c2NC(=O)NS(=O)(=O)c2ccn(CCN(C)C)n2)CCC3)ccn1 [Example 26] | < 400 nM
* CN(C)C1(Cn2ccc(S(=O)(=O)NC(=O)Nc3c4c(cc5c3CCC5)CCC4)n2)CC1 [Example 11] | < 1600 nM
* CN(C)CCn1cc(S(=O)(=O)NC(=O)Nc2c3c(cc4c2CCC4)CCC3)nn1 [Example 25, sodium salt] | < 3200 nM
* CN(C)CC1(n2ccc(S(=O)(=O)NC(=O)Nc3c4c(cc5c3CCC5)CCC4)n2)CC1 [Example 202] | < 400 nM
* CN1CC(Cn2ccc(S(=O)(=O)NC(=O)Nc3c4c(cc5c3CCC5)CCC4)n2)C1 [Example 19] | < 3200 nM
* CN(C)CCn1ccc(S(=O)(=O)NC(=O)Nc2c3c(cc4c2CCC4)CCC3)n1 [Example 7] | < 400 nM
* CC(C)c1cccc(C(C)C)c1NC(=O)NS(=O)(=O)c1cc(C(=O)N(C)C)n(C)n1 [Example 167, sodium salt] | < 400 nM
* CN(C)CC(C)(C)n1ccc(S(=O)(=O)NC(=O)Nc2c3c(cc4c2CCC4)CCC3)n1 [Example 17] | < 1600 nM
* CN1CC[C@H]1Cn1ccc(S(=O)(=O)NC(=O)Nc2c3c(cc4c2CCC4)CCC3)n1 [Example 20] | < 400 nM
* CC(=O)N(C)Cc1cc(S(=O)(=O)NC(=O)Nc2c3c(cc4c2CCC4)CCC3)nn1C(C)C [Example 129] | < 800 nM
* CN1CCC[C@@H]1Cn1ccc(S(=O)(=O)NC(=O)Nc2c3c(cc4c2CCC4)CCC3)n1 [Example 21] | < 800 nM
* O=C(Nc1c2c(cc3c1CCC3)CCC2)NS(=O)(=O)c1ccn(CCN2CCCC2)n1 [Example 3, sodium salt] | < 1600 nM
